- Target system: acetylcholine receptor
- Protocol description: SPR, AchR immobilized on CM5 chip, peptide at 10 uM
Endpoint label: Binding affinity (RU)

Please review the entries below; each comes with its answer.
binder="KNHKK [5mer-722]" reading=33
binder="RKYHGR [6mer-1-802]" reading=32
binder="RDMMR [5mer-1007]" reading=30
binder="RKKTIR [6mer-1-806]" reading=12

(A) KKNER [5mer-699]
(B) RKDAEK [6mer-1-846]
(C) KWRSRR [6mer-2-335]
(D) RRYKNR [6mer-1-833]
Q: # rank by Binding affinity (RU), ascending (min first) Put the labels in the requested order and list them out.
Ans: A, D, B, C
(A: 12 RU, D: 19 RU, B: 28 RU, C: 153 RU)
